molecular target: IL16_1, Q14005; assay: holdup assay; design: key: below the threshold = too weak to quantify, mostly under pKd 3.1 to 4; settings: plain residues with an end cap or a label only (N-terminal biotin on a linker: ado-ado)
Sequence (Q14005 210-306): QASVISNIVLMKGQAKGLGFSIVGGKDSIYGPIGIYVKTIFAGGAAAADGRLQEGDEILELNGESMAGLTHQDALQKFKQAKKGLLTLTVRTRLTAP
experimental-readout: pKd

binder="LPAVCYDIDI [PTTG2, Q9NZH5]" experimental_readout=pKd observed_measurement="below the threshold"
binder="GIKKITSTAL [RPS6KA3, P51812]" experimental_readout=pKd observed_measurement=3.5
binder="EPQYQPGENL [SRC, P12931]" experimental_readout=pKd observed_measurement="below the threshold"
binder="VKRNSKETVV [MARCHF3, Q86UD3]" experimental_readout=pKd observed_measurement=3.94
binder="RDPPAEWTRV [PTPN18, Q99952]" experimental_readout=pKd observed_measurement="below the threshold"

Any idea what pKd was measured for ARSAAASNYV [CLDN4, O14493] ? below the threshold

Any idea what pKd was measured for EDGESWEYQI [TRPV6, Q9H1D0] ? below the threshold

Any idea what pKd was measured for GTGYDRKDYV [CLDN3, O15551] ? below the threshold

Any idea what pKd was measured for SRSVVESDEL [MYPN, Q86TC9] ? below the threshold

Any idea what pKd was measured for PSVGSKKTVL [REELD1, A0A1B0GV85] ? below the threshold

src = paper PMC9482650
